# Tested on: CAMK1
# CONDITION: concentration: 1 μM, replicates: in singlicate; n = 1;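 further: KINOMEscan kinase panel screen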
Overview of recorded %Inh for various molecules
VALUE_KIND: %Inh

>>> print(df.to_string())
                                   molecule  value_kind  measured_value
0  C[C@@H](Oc1cc(-n2cnc3cc(-c4ccnc(NCCS(C)(=O)=O)c4)ccc32)sc1C(N)=O)c1ccccc1Cl [GSK907232]        %Inh             15%
1  Cl.NC(=O)c1cccc(Nc2nccc(Nc3ccc(Oc4c(Cl)cccc4Cl)c(Cl)c3)n2)c1 [GW659009]        %Inh             14%
2  CN1CCN(Cc2cccc(-c3ccc4c(Nc5ccc(Oc6ccccc6)cc5)ccnc4c3)c2)CC1 [GW578342]        %Inh             27%
3  Cc1cccc(NC(=O)Nc2ccc(Oc3ncnc4ccn(C)c34)cc2)c1        %Inh              0%
4  Cl.Cl.NCC(C(=O)Nc1cc(Br)c(-c2ccnc3[nH]ccc23)s1)c1ccccc1 (centres unmarked) [GSK1269851]        %Inh              0%
5  Cl.c1ccc(-c2ccc3c(Nc4ccc5[nH]ccc5c4)ccnc3c2)nc1 [GW440138]        %Inh              0%
6  Cl.c1ccc(-c2ccc3c(Nc4ccc5[nH]ncc5c4)ccnc3c2)nc1 [GW440137]        %Inh             11%
7  Cc1ccc(F)c(C(=O)Nc2cccc(-c3nn4ccccc4c3-c3ccnc(Nc4cccc(F)c4)n3)c2)c1F [GSK361061]        %Inh             26%

* * *

Overview of recorded %Inh for various compounds
# Tested on: BMX
# CONDITION: concentration: 1 μM, replicates: in singlicate; n = 1
VALUE_KIND: %Inh (%)

>>> df
                                   compound  measured_value
0  O=C(Nc1n[nH]c2nc(-c3ccc(O)cc3)ccc12)C1CC1 [SB-710363]              22
1  Cc1occc1-c1ncc(OC[C@@H](N)Cc2c[nH]c3ccccc23)cc1-c1ccc2[nH]nc(C)c2c1.O=C(O)C(F)(F)F [GSK682037]              22
2  COc1ccc(Nc2nccc(N3CCC(NC(=O)Nc4cccc(OC)c4)C3)n2)cc1 (centres unmarked) [GSK1379742]               0
3  O=C(Nc1cccc(-c2nn3ccccc3c2-c2ccnc(Nc3cccc(C(F)(F)F)c3)n2)c1)c1c(F)cccc1F [GSK292658]              52
4  Cc1ccc(C(=O)N2CC[C@@H](O)C2)cc1-n1c(C)cc(OCc2ccc(F)cc2F)c(Br)c1=O               0
5  Clc1ccc(-c2nn3ncccc3c2-c2ccnc(Nc3ccc4c(c3)OCCO4)n2)cc1 [GW829116]               0
6  COc1cccc(C(=O)Nc2cccc(Oc3ccc4nc(NC(=O)C5CC5)cn4n3)c2)c1              77
7  CCCCc1nn2ncccc2c1-c1ccnc(Nc2ccc(N3CCN(C)CC3)cc2)n1 [GW684941]              53

* * *

# Tested on: CDC2L5
# Construct: gene CDK13
# CONDITION: concentration: 1 μM, replicates: in singlicate; n = 1
Overview of recorded %Inh for various compounds
VALUE_KIND: %Inh (%)

                                   compound  value_kind  measured_value
0  COc1cc(Nc2nccc(-c3c(-c4cccc(NC(=O)c5c(F)cccc5F)c4)nn4ccccc34)n2)cc(OC)c1OC [GSK323521]        %Inh               0
1  CN(C)S(=O)(=O)c1cc(-c2ccc3nccc(-c4cccc(S(N)(=O)=O)c4)c3c2)cnc1N [GSK1669921]        %Inh               0
2  Cc1cccc(Nc2nc(N[C@H]3CCNC3)ncc2C(N)=O)c1.Cl [GSK2197149]        %Inh               0
3  FC(F)(F)c1ccc(/C=C/c2cncnc2Nc2ccc3[nH]c(Cc4ccccc4)nc3c2)cc1 [GW709199]        %Inh               6
4  COCCOCCOc1cc2ncc3c4ccc(C#N)cc4[nH]c3c2cc1OC        %Inh               0
5  CC(=O)Nc1nc2cnc(Nc3cc(NC(=O)c4cccc(C5(C#N)CC5)c4Cl)ccc3C)nc2s1        %Inh              17
6  COc1cccc(C2=C(Nc3ccc(Cl)c(C(=O)O)c3)C(=O)NC2=O)c1 [SB-390769]        %Inh               0
7  CCCCc1nn2ncccc2c1-c1ccnc(Nc2ccc(N3CCN(C)CC3)cc2)n1 [GW684941]        %Inh               0

* * *

Overview of recorded %Inh for various compounds
# Test system: BRAF
# CONDITION: concentration: 1 μM, replicates: in singlicate; n = 1
VALUE_KIND: %Inh (%)

>>> df
                                    compound  units_symbol  measured_value
 0  CN(C)Cc1ccc(-c2ccc3c(Nc4ccc(Oc5ccccn5)cc4)ccnc3c2)o1             %               1
 1  COC(=O)Nc1nc2ccc(Oc3ccc(NC(=O)Nc4cc(C(F)(F)F)ccc4F)cc3)cc2n1C.Cl             %              57
 2  Cn1cc(-c2ccc3c(c2)CCN3C(=O)Cc2cccc(Cl)c2)c2c(N)ncnc21             %              11
 3  COC(=O)Nc1nc2cc(Oc3ccc(NC(=O)Nc4cc(C(F)(F)F)ccc4F)cn3)ccc2[nH]1.Cl.Cl             %              73
 4  COc1cccc(C2=C(Nc3ccc(Cl)c(C(=O)O)c3)C(=O)NC2=O)c1             %              13
 5  COc1ccc(CNC(=O)NC2CCN(c3ccnc(Nc4ccc(F)cc4)n3)CC2)cc1             %               0
 6  CCn1c(-c2nonc2N)nc2c(C#CC(C)(C)O)ncc(OCCCCN)c21.O=C(O)C(F)(F)F.O=C(O)C(F)(F)F             %               8
 7  COc1cccc(C(=O)Nc2cccc(Oc3ccc4nc(NC(=O)C5CC5)cn4n3)c2)c1             %            96.5
 8  Cl.Cl.NCC(C(=O)Nc1cc(Br)c(-c2ccnc3[nH]ccc23)s1)c1ccccc1 (stereo not drawn)             %               1
 9  CN1CCN(CCCNc2nccc(-c3c(-c4ccc(F)cc4)nn4cc(C(F)(F)F)ccc34)n2)CC1             %              41
10  COc1cc(Nc2nccc(N3CCC(NC(=O)c4cc5ccccc5s4)C3)n2)cc(OC)c1OC (stereo not drawn)             %               4
11  CN(c1ccc(NC(=O)Nc2cc(C(F)(F)F)ccc2F)cc1)c1ccnc(Nc2ccc(S(N)(=O)=O)cc2)n1             %              66
12  Nc1ncc(-c2cccnc2)c2scc(-c3ccc4c(c3)CCN4C(=O)Cc3ccccc3)c12             %               0
13  COc1ccc(Nc2nccc(N3CCC(NC(=O)Nc4cccc(OC)c4)C3)n2)cc1 (stereo not drawn)             %               2
14  COc1cc(Nc2nccc(-c3c(-c4cccc(NC(=O)c5c(F)cccc5F)c4)nn4ncccc34)n2)cc(OC)c1OC             %              96
15  COc1cc(Nc2ncc3c(C)nc(-c4cc5ccccc5[nH]4)n3n2)cc(OC)c1OC             %               0
16  CCc1ccc(-c2ccc3c(c2)-c2c(cnn2C)S(=O)(=O)N3C)cc1             %               0
17  O=C(Nc1n[nH]c2nc(-c3ccc(O)cc3)ccc12)C1CC1             %               0
18      CC(C)(C)c1ccc2nccc(Nc3cccc(O)c3)c2c1             %              41
19  Cn1cc(-c2[nH]c3cc(NC(=O)[C@H](N)C4CCCCC4)cc4c3c2C=NNC4=O)cn1             %              39
20  O=C(NC1CCN(c2ccnc(Nc3ccc(F)cc3)n2)C1)c1cc2ccccc2s1 (stereo not drawn)             %               0
21        Nc1ncnc2c1nc(-c1ccccc1)n2-c1ccccc1             %               6
22  NCCCC(NC(=O)c1cc(Br)c(-c2ccnc3[nH]ccc23)s1)c1ccccc1.O=C(O)C(F)(F)F.O=C(O)C(F)(F)F (stereo not drawn)             %               0
23  O=c1[nH]cc(-c2ccc(N3CCOCC3)cc2)c2sc(-c3cn[nH]c3)cc12             %              35
24  CN1CCN(Cc2cccc(-c3ccc4c(Nc5ccc(Oc6ccccc6)cc5)ccnc4c3)c2)CC1             %               0
25  COc1cc(Nc2nccc(N3CCC(NC(=O)Nc4cccc(C(C)=O)c4)C3)n2)cc(OC)c1OC (stereo not drawn)             %               0
26  COc1ccc(-c2coc3ccc(-c4nnc(SCc5ccc(OC)c(C(F)(F)F)c5)o4)cc23)cc1             %               0
27  O=C(Nc1cccc(-c2nn3ccccc3c2-c2ccnc(Nc3cccc(F)c3)n2)c1)c1c(F)ccc(F)c1Cl             %              36
28     O=C(Nc1n[nH]c2cc(-c3ccoc3)ccc12)C1CC1             %               0
29  Cn1cc(-c2ccc3c(c2)CCN3C(=O)Cc2cccc(F)c2)c2c(N)ncnc21             %               4
30  COc1ccc(Nc2nccc(NCCNC(=O)c3cc4ccccc4s3)n2)cc1             %               0
31            Oc1cc(Nc2ccnc3cc(I)ccc23)ccc1F             %              79
32  CN(C)S(=O)(=O)c1cc(-c2ccc3nccc(-c4cccc(S(N)(=O)=O)c4)c3c2)cnc1N             %              30
